pIC50: −log10 of the molar value.
Listing of pIC50 toward Tyrosine-protein kinase Lck (Homo sapiens, UniProt P06239), each taken from a published source.

{"columns": ["molecule", "property name", "value observed"],
 "data": [
  ["CN(C)C/C=C/C(=O)N(C)c1ccc(-n2c(=O)n(-c3ccc(Oc4ccccc4)cc3)c3c(N)ncnc32)cc1", "pIC50", "6.00 to 7.00"],
  ["CC#CC(=O)N1CCC[C@H]1Cn1nc(-c2ccc(Oc3ccccc3)cc2)c2c(N)ncnc21", "pIC50", 8.42],
  ["COc1ccn2c(-c3ccnc(NCCO)n3)c(-c3cccc(NS(=O)(=O)c4c(F)ccc(C)c4F)c3F)nc2c1", "pIC50", "< 6.00"],
  ["Cc1ccc(NC(=O)/C=C/c2cccnc2)cc1C(=O)Nc1cnc2[nH]c(-c3ccccc3)nc2c1", "pIC50", "7.00 to 8.00"],
  ["CNc1nccc(-c2sc(-c3ccc(F)cn3)nc2-c2cccc(NS(=O)(=O)c3c(Cl)cccc3Cl)c2F)n1", "pIC50", "< 6.00"]
]}

Observed pIC50 on Tyrosine-protein kinase Lck (Homo sapiens, UniProt P06239) for CN(c1ncnc2[nH]ccc12)C1CCCCN(C(=O)CNc2cc(Cl)cc(Cl)c2)C1 (stereo not shown) , please.
< 5.00

Observed pIC50 on Tyrosine-protein kinase Lck (Homo sapiens, UniProt P06239) for `C=CC(=O)N1CC[C@@H](n2c(=O)n(-c3ccc(Oc4cccc(Cl)c4)c(Cl)c3)c3cnccc32)C1` , please.
≤ 5.00

Observed pIC50 on Tyrosine-protein kinase Lck (Homo sapiens, UniProt P06239) for `CC(C)OC(=O)Nc1cnc2[nH]c(-c3ccc(N4CCOCC4)cc3)nc2c1` , please.
5.05 to 7.00

Observed pIC50 on Tyrosine-protein kinase Lck (Homo sapiens, UniProt P06239) for `CN1C(=O)N(c2cc(NC(=O)C=Cc3ccccc3)ccc2Cl)Cc2cnc(N)nc21` , please.
7.41

Observed pIC50 on Tyrosine-protein kinase Lck (Homo sapiens, UniProt P06239) for `O=C(N[C@H]1CCNC1)c1nc2nc(Nc3ccc(F)cc3)ncc2cc1-c1ccccc1Br` , please.
7.20

----------
Listing of IC50 toward Tyrosine-protein kinase Lck (Homo sapiens), each taken from a published source.

Some solved entries appear below for comparison.
{"columns": ["sample smiles", "IC50"],
 "data": [
  ["CN(C/C=C/C(=O)Nc1cccc(-n2c(=O)n(-c3ccc(Oc4ccccc4)cc3)c3c(N)ncnc32)c1)[C@H]1CCOC1", "100 to 1000 nM"],
  ["CN1CCN(c2ccc3nc(-c4c(N[C@H]5CCCC[C@H]5O)c5cscc5[nH]c4=O)[nH]c3c2)CC1", "≤ 50 nM"],
  ["CNc1nccc(-c2sc(-c3ccccc3)nc2-c2cccc(NS(=O)(=O)c3c(F)cccc3F)c2F)n1", "> 1000 nM"]
]}

Observed IC50 on Tyrosine-protein kinase Lck (Homo sapiens) for `Nc1nccc(-c2c(-c3cccc(NS(=O)(=O)c4c(F)cccc4F)c3F)nc3cc(C(=O)O)ccn23)n1` , please.
> 1000 nM

Observed IC50 on Tyrosine-protein kinase Lck (Homo sapiens) for `Nc1ncnc2c1c(-c1cccc(OC[C@@H]3CCCO3)c1F)cn2[C@H]1C[C@@H](CN2CC[S+]([O-])CC2)C1` , please.
8600 nM
